Test system: morningglory (Ipomoea hederacea)
test-method-notes: Preemergence herbicidal activity, morningglory
Format: in vivo
experimental-context: 4.4 g/Ha, soil spray, visual after 3 weeks; 0 no injury, 100 complete kill or no germination
readout-kind: IPOHE preemergence injury score 0-100 (%)
Please state the figure in %; there is no need to write the unit.

May I ask what IPOHE preemergence injury score 0-100 has been recorded for COc1csc(Cl)c1S(=O)(=O)Nc1nc2c(OC)cnc(OC)n2n1 [Compound 18] ?
80

Given the compound CCOc1cscc1S(=O)(=O)Nc1nc2c(OC)ccc(OC)n2n1 [Compound 11] , what is its reported IPOHE preemergence injury score 0-100?
30

Which IPOHE preemergence injury score 0-100 value is on record for CCOc1cscc1S(=O)(=O)Nc1nc2c(OC)cnc(OC)n2n1 [Compound 13] ?
90

For the compound shown here, COc1csc(C)c1S(=O)(=O)Nc1nc2c(OC)cnc(OC)n2n1 [Compound 23] , give the reported IPOHE preemergence injury score 0-100.
80

State the recorded IPOHE preemergence injury score 0-100 for this entry: COc1cscc1S(=O)(=O)Nc1nc2c(OC)cnc(OC)n2n1 [Compound 7]
85

====

Tested on: chickweed (Stellaria media)
test-method-notes: Postemergence herbicidal activity, chickweed
Type: in vivo
experimental-context: 31.3 ppm, foliar spray, visual after 2 weeks; 0 no injury, 100 complete kill
Kindly supply the reported STEME postemergence injury score 0-100 values for the records listed here.
Entry rule: numbers only, all in %.

What value of measured STEME postemergence injury score 0-100 is listed for `COc1cscc1S(=O)(=O)Nc1nc2c(Cl)cnc(OC)n2n1` ?
100

Name the recorded STEME postemergence injury score 0-100 for `COc1csc(Cl)c1S(=O)(=O)Nc1nc2c(Cl)cnc(OC)n2n1` .
85

// lookup STEME postemergence injury score 0-100 for `COc1csc(C)c1S(=O)(=O)Nc1nc2c(Cl)cnc(OC)n2n1`
80

Would you mind telling me what STEME postemergence injury score 0-100 value was observed for `COc1cscc1S(=O)(=O)Nc1nc2c(C)cnc(OC)n2n1` ?
90

====

Test system: pigweed (Amaranthus retroflexus)
test-method-notes: Preemergence herbicidal activity, pigweed
Assay type: in vivo
experimental-context: 35 g/Ha, soil spray, visual after 3 weeks; 0 no injury, 100 complete kill or no germination
So I've got a bunch of molecules here, and I need their AMARE preemergence injury score 0-100 values.
Give the value, in units of %, as a plain number.

Reported AMARE preemergence injury score 0-100, molecule COc1cnc(OC)n2nc(NS(=O)(=O)c3ccsc3CC(=O)O)nc12 [Compound 6] : ____
100

Which AMARE preemergence injury score 0-100 is listed for COc1cscc1S(=O)(=O)Nc1nc2c(Cl)cnc(OC)n2n1 [Compound 14] ?
80

What value of measured AMARE preemergence injury score 0-100 is listed for COc1cscc1S(=O)(=O)Nc1nc2c(C)cnc(OC)n2n1 [Compound 17] ?
70

Please give the measured AMARE preemergence injury score 0-100 for this molecule: COc1csc(C)c1S(=O)(=O)Nc1nc2c(Cl)cnc(OC)n2n1 [Compound 22]
100

Could you tell me which AMARE preemergence injury score 0-100 is on file for COc1cc(OC)n2nc(NS(=O)(=O)c3sc(Cl)cc3OC)nc2n1 [Compound 4] ?
100

If you can, please state the reported AMARE preemergence injury score 0-100 value of COc1cscc1S(=O)(=O)Nc1nc2c(OC)ccc(OC)n2n1 [Compound 16] .
60

Bench note: what AMARE preemergence injury score 0-100 did COc1cc(Cl)sc1S(=O)(=O)Nc1nc2c(OC)cnc(OC)n2n1 [Compound 3] show?
95

====

What SETFA preemergence injury score 0-100 was measured for each of the following?
Tested on: giant foxtail (Setaria faberi)
test-method-notes: Preemergence herbicidal activity, giant foxtail
Assay type: in vivo
experimental-context: 4.4 g/Ha, soil spray, visual after 3 weeks; 0 no injury, 100 complete kill or no germination
Description: The soil matrix was contained in plastic pots with a surface area of 161 square centimeters. When required to ensure good germination and healthy plants, a fungicide treatment and/or other chemical or physical treatment was applied. A weighed amount, determined by the highest rate to be tested, of each test compound was placed in a 20 mL glass vial and was dissolved in 8 mL of a 97:3 v/v (volume/volume) mixture of acetone and dimethyl sulfoxide to obtain concentrated stock solutions. […]
Expressed in %, but write only the number.

What measured SETFA preemergence injury score 0-100 goes with `COc1cscc1S(=O)(=O)Nc1nc2c(OC)cnc(OC)n2n1` ?
100

Which value of SETFA preemergence injury score 0-100 has been reported for `COc1csc(Cl)c1S(=O)(=O)Nc1nc2c(OC)cnc(OC)n2n1` in the records?
100

Any idea what its SETFA preemergence injury score 0-100 is? The compound is `CCOc1cscc1S(=O)(=O)Nc1nc2c(OC)cnc(OC)n2n1`
100

Which value of SETFA preemergence injury score 0-100 has been reported for `COc1csc(C)c1S(=O)(=O)Nc1nc2c(OC)cnc(OC)n2n1` in the records?
98

Would you kindly share the measured SETFA preemergence injury score 0-100 for `CCOc1cscc1S(=O)(=O)Nc1nc2c(OC)ccc(OC)n2n1` ?
100

====

Tested on: wild poinsettia (Euphorbia heterophylla)
test-method-notes: Preemergence herbicidal activity, wild poinsettia
Format: in vivo
experimental-context: 4.4 g/Ha, soil spray, visual after 3 weeks; 0 no injury, 100 complete kill or no germination
Description: The soil matrix was contained in plastic pots with a surface area of 161 square centimeters. When required to ensure good germination and healthy plants, a fungicide treatment and/or other chemical or physical treatment was applied. A weighed amount, determined by the highest rate to be tested, of each test compound was placed in a 20 mL glass vial and was dissolved in 8 mL of a 97:3 v/v (volume/volume) mixture of acetone and dimethyl sulfoxide to obtain concentrated stock solutions. […]
readout-kind: EPHHL preemergence injury score 0-100 (%)
Number in %, nothing else.

What value of measured EPHHL preemergence injury score 0-100 is listed for COc1csc(Cl)c1S(=O)(=O)Nc1nc2c(OC)cnc(OC)n2n1 [Compound 18] ?
90

Record request: EPHHL preemergence injury score 0-100 value, item CCOc1cscc1S(=O)(=O)Nc1nc2c(OC)cnc(OC)n2n1 [Compound 13]
100

Suppose we examine the compound COc1cscc1S(=O)(=O)Nc1nc2c(OC)cnc(OC)n2n1 [Compound 7] ; what EPHHL preemergence injury score 0-100 value has been reported?
85

Need EPHHL preemergence injury score 0-100, item CCOc1cscc1S(=O)(=O)Nc1nc2c(OC)ccc(OC)n2n1 [Compound 11]
50

GET /values?readout=EPHHL preemergence injury score 0-100&item= COc1csc(C)c1S(=O)(=O)Nc1nc2c(OC)cnc(OC)n2n1 [Compound 23]
90

====

Answer each item with its documented IPOHE preemergence injury score 0-100.
Tested on: morningglory (Ipomoea hederacea)
test-method-notes: Preemergence herbicidal activity, morningglory
Type: in vivo
experimental-context: 8.8 g/Ha, soil spray, visual after 3 weeks; 0 no injury, 100 complete kill or no germination
Form entry: value (%) — number only.

Requested read-out: IPOHE preemergence injury score 0-100. Entry: `CCOc1cscc1S(=O)(=O)Nc1nc2nc(OC)cc(OC)n2n1`
80

Requested read-out: IPOHE preemergence injury score 0-100. Entry: `COc1csc(C(F)(F)F)c1S(=O)(=O)Nc1nc2c(OC)cnc(OC)n2n1`
80

Consider the compound shown here: `COc1cc(OC)n2nc(NS(=O)(=O)c3c(OC)csc3Cl)nc2n1` What is its recorded IPOHE preemergence injury score 0-100?
90

Consider the compound shown here: `COc1cc(OC)n2nc(NS(=O)(=O)c3cscc3OC)nc2n1` What is its recorded IPOHE preemergence injury score 0-100?
70

Suppose we examine the compound `COc1sccc1S(=O)(=O)Nc1nc2c(OC)cnc(OC)n2n1` ; what IPOHE preemergence injury score 0-100 value has been reported?
75

Find the recorded IPOHE preemergence injury score 0-100 belonging to `COc1ccsc1S(=O)(=O)Nc1nc2c(Cl)cnc(OC)n2n1` and report it.
80

Give the measured IPOHE preemergence injury score 0-100 of `COc1csc(Cl)c1S(=O)(=O)Nc1nc2c(C)cnc(OC)n2n1` .
40

Any idea what IPOHE preemergence injury score 0-100 was measured for `COc1cc(OC)n2nc(NS(=O)(=O)c3c(OC)csc3C)nc2n1` ?
98

====

System: cocklebur (Xanthium strumarium)
test-method-notes: Preemergence herbicidal activity, cocklebur
Format: in vivo
experimental-context: 35 g/Ha, soil spray, visual after 3 weeks; 0 no injury, 100 complete kill or no germination
readout-kind: XANST preemergence injury score 0-100 (%)
// note: answer is a bare numeric in %

What value of XANST preemergence injury score 0-100 on cocklebur (Xanthium strumarium) does `COc1cc(OC)n2nc(NS(=O)(=O)c3sc(Cl)cc3OC)nc2n1` have?
0

Tell me reported XANST preemergence injury score 0-100 for `COc1csc(C)c1S(=O)(=O)Nc1nc2c(Cl)cnc(OC)n2n1` , tested with cocklebur (Xanthium strumarium).
80

Write down the reported XANST preemergence injury score 0-100 of `COc1cnc(OC)n2nc(NS(=O)(=O)c3ccsc3CC(=O)O)nc12` , test system: cocklebur (Xanthium strumarium).
70

Lab request: please report XANST preemergence injury score 0-100 under test system cocklebur (Xanthium strumarium) for `COc1cscc1S(=O)(=O)Nc1nc2c(OC)ccc(OC)n2n1`
40

Fill in the recorded XANST preemergence injury score 0-100 for this compound, with cocklebur (Xanthium strumarium) as test system: `COc1cscc1S(=O)(=O)Nc1nc2c(C)cnc(OC)n2n1`
70

XANST preemergence injury score 0-100 of `COc1cc(Cl)sc1S(=O)(=O)Nc1nc2c(OC)cnc(OC)n2n1` on cocklebur (Xanthium strumarium)?
70

API: value(readout=XANST preemergence injury score 0-100, system=cocklebur (Xanthium strumarium)) for record `COc1cscc1S(=O)(=O)Nc1nc2c(Cl)cnc(OC)n2n1`
60
